Overview of reported IC50 across a group of compounds:
target: human HSL (Homo sapiens, UniProt Q05469); construct: overlapping PCR to generate a full length human HSL ORF with a 3′-His6 tag; His6 (C); assay: Human Hormone-Sensitive Lipase (HSL) Enzyme Inhibition Assay; settings: colorimetric assay, 2,3-dimercapto-1-propanol tributyrate (DMPT) substrate, 37° C. for 20 minutes, absorbance at 405 nm; read-out: HSL hum IC50
Sequence (Q05469 whole entry): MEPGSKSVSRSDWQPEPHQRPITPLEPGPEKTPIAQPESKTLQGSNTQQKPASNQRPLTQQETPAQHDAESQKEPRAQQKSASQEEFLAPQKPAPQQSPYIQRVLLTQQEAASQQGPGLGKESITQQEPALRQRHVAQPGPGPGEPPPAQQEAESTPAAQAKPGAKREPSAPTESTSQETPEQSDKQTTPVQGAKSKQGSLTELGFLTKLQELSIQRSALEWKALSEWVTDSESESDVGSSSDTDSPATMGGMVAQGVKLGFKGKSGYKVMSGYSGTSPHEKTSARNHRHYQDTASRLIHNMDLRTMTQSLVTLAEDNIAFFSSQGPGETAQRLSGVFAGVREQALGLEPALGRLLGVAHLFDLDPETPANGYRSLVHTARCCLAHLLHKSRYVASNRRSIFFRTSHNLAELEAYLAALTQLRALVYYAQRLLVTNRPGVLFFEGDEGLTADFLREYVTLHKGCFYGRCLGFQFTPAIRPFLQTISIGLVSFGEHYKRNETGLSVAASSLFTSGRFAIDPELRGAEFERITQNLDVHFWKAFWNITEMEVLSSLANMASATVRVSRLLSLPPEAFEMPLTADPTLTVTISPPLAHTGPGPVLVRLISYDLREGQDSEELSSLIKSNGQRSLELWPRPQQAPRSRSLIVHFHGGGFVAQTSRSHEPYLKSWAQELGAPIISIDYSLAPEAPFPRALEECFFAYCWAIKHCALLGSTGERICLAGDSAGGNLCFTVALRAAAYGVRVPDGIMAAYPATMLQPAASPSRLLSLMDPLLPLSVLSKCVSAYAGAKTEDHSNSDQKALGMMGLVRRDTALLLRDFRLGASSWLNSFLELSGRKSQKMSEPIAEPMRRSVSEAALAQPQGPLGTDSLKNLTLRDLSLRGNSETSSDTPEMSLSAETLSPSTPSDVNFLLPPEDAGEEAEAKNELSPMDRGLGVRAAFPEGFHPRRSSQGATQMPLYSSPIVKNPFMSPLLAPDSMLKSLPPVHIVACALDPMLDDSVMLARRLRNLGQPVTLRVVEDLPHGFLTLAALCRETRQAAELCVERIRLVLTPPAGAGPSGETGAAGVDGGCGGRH
Return type: number; implicit unit nM.

In the examples that follow, each entry is paired with its recorded IC50.
COMPOUND	ASSAY VALUE
CCC(C)c1ccc(N2CCC3(CCN(C(=O)CC(C)(C)C)CC3)C2=O)cc1 (centres unmarked)	150
O=C1N(CCc2cccc(C(F)(F)F)c2)CCC12CCN(S(=O)(=O)c1ccccc1Cl)CC2	100
O=C1N(c2ccc(/C=C/C3CC3)cc2)CCC12CCN(S(=O)(=O)c1ccccc1OC(F)(F)F)CC2	120

According to the records, this compound `O=C1N(c2ccc(C3CC3)cc2)CCC12CCN(S(=O)(=O)c1ccc(C(F)(F)F)cc1Cl)CC2` displays IC50 of 180

According to the records, this compound `CCOCc1ccc(N2CCCC3(CCN(S(=O)(=O)c4ccccc4Cl)CC3)C2=O)cc1` displays IC50 of 300

According to the records, this compound `C=Cc1ccc(N2CCC3(CCN(S(=O)(=O)c4ccccc4Cl)CC3)C2=O)cc1` displays IC50 of 40

According to the records, this compound CC(Oc1ccc(N2CCC3(CCN(S(=O)(=O)c4ccccc4)CC3)C2=O)cc1)C(F)(F)F (racemic) displays IC50 of 20

According to the records, this compound `CCc1ccc(N2CCC3(CCN(C(=O)NCCc4ccccc4)CC3)C2=O)cc1` displays IC50 of 160

According to the records, this compound `Cc1ccc(S(=O)(=O)N2CCC3(CCN(c4ccc(OS(C)(=O)=O)cc4)C3=O)CC2)s1` displays IC50 of 60

According to the records, this compound `CC(C)(C)OCC(=O)N1CCC2(CC1)CCN(c1ccc(OC(F)(F)F)cc1)C2=O` displays IC50 of 100

According to the records, this compound `O=C1N(c2ccc(OCC(F)(F)F)nc2)CCC12CCN(S(=O)(=O)c1ccccc1)CC2` displays IC50 of 60

According to the records, this compound `COC(=O)c1cccc(C)c1S(=O)(=O)N1CCC2(CCN(c3ccc(OC(F)(F)F)cc3)C2=O)CC1` displays IC50 of 150

Data origin, for the record: patent US8329904B2
